melting point for assorted molecules
Your answer is read as °C, so omit the unit and give the number.

[
  {
    "MOLECULE": "Cc1cc2c(o1)-c1c(oc3c(I)cc(I)cc13)CCC2(C)c1ccccc1 (stereo not given)",
    "melting point / °C": 175
  }
]

[Q] Which measured melting point value corresponds to O=P1(NC2CCCCC2)Oc2ccccc2-c2ccccc2O1 ?
[A] 160

###

QUANTITY: melting point

[Q] Which measured melting point value corresponds to COc1ccc(-c2cc(-c3ccc(OC)cc3)cc(-c3ccc(OC)cc3)c2)cc1 ?
[A] 143 to 146 °C

[Q] Which measured melting point value corresponds to CC12CCC(C(=CCC=C3C(=O)C4(C)CCC3C4(C)C)C1=O)C2(C)C ?
[A] 265 to 267 °C

[Q] Which measured melting point value corresponds to Cc1cc([N+](=O)[O-])ccc1F ?
[A] 39 °C

[Q] Which measured melting point value corresponds to C=C(C)CO ?
[A] -50 °C

[Q] Which measured melting point value corresponds to NC(C(=O)O)c1ccccc1 (stereo not given) ?
[A] 302 °C

[Q] Which measured melting point value corresponds to CC(C)CS ?
[A] -145 °C

[Q] Which measured melting point value corresponds to COc1cc(OC(C)=O)c2c(=O)c(O[C@@H]3O[C@H](COC(C)=O)[C@H](OC(C)=O)[C@H](OC(C)=O)[C@@H]3O[C@@H]3O[C@H](C)[C@H](OC(C)=O)[C@H](OC(C)=O)[C@@H]3OC(C)=O)c(-c3ccc(OC(C)=O)cc3)oc2c1 ?
[A] 118 to 120 °C

[Q] Which measured melting point value corresponds to COc1ccc([N+](=O)[O-])c(O)c1 ?
[A] 90 to 94 °C

[Q] Which measured melting point value corresponds to COC(=O)c1cc2c(=O)oc3ccccc3c2nc1C ?
[A] 215 °C

[Q] Which measured melting point value corresponds to Cc1cccc(C(N)=NO)c1 ?
[A] 143 to 146 °C

[Q] Which measured melting point value corresponds to NC(=NO)c1ccc(Oc2ccc(F)cc2F)c([N+](=O)[O-])c1 ?
[A] 164 to 167 °C

[Q] Which measured melting point value corresponds to CC(C)(C)OC(=O)NC1(C(=O)O)CCc2ccccc2C1 (stereo not given) ?
[A] 185 to 187 °C

[Q] Which measured melting point value corresponds to O=C(N=C=S)c1cccc([N+](=O)[O-])c1 ?
[A] 93 to 95 °C

[Q] Which measured melting point value corresponds to O=C(CBr)c1nccs1 ?
[A] 54 to 55 °C

[Q] Which measured melting point value corresponds to CC(C)C(=O)NN ?
[A] 97 to 100 °C

###

melting point for assorted compounds

[
  {
    "COMPOUND": "CSc1nc2cc(N=Cc3ccc4c(c3)OCO4)ccc2[nH]1",
    "EXPERIMENTAL_VALUE": "213 to 215 °C"
  }
]

[Q] Which measured melting point value corresponds to O=S(=O)(Cl)Cc1ccc(Br)cc1 ?
[A] 117 to 121 °C

[Q] Which measured melting point value corresponds to CC1OC(Oc2ccc([N+](=O)[O-])cc2)C(O)C(O)C1O (stereo not given) ?
[A] 191 to 192 °C

###

melting point for assorted compounds

Check out these entries, answers already filled in.
[
  {
    "COMPOUND": "O=C1NCCSC1c1ccccc1 (stereo not given)",
    "melting point": "158 to 162 °C"
  },
  {
    "COMPOUND": "CC(=O)Nc1ccc(C#N)cc1C(F)(F)F",
    "melting point": "169 to 171 °C"
  },
  {
    "COMPOUND": "O=C(O)CC1(CC(=O)O)CCCCC1",
    "melting point": "181 to 185 °C"
  }
]

[Q] Which measured melting point value corresponds to O=C(O)c1ccc(C(F)(F)F)cc1C(F)(F)F ?
[A] 109 to 113 °C

[Q] Which measured melting point value corresponds to CCCCCCCCCCCCOc1ccccc1OCCCCCCCCCCCC ?
[A] 45 to 48 °C

// data source = a melting point compilation (Tetko et al.)
